Experiment: Tacrolimus whole blood pharmacokinetics (LC-MS-MS) after SC Composition A
Type: in vivo, human
Conditions: human, whole blood, sc, 0.01 mL/kg, Composition A 0.01 mL/kg SC QAD, Day 5; read-out: Tacrolimus AUCtau (GM)
metric: AUC (ng·h/mL)
Numeric only. Scale: ng·h/mL

Fill blank: measured AUC of the molecule C=CC[C@@H]1/C=C(\C)C[C@H](C)C[C@H](OC)[C@H]2O[C@@](O)(C(=O)C(=O)N3CCCC[C@H]3C(=O)O[C@H](/C(C)=C/[C@@H]3CC[C@@H](O)[C@H](OC)C3)[C@H](C)[C@@H](O)CC1=O)[C@H](C)C[C@@H]2OC [Tacrolimus] is ____. 171

---

Assay: clinical
Conditions: human, in vivo, sc, Plerixafor t1/2 (GM)
metric: half-life (h)
Numeric only. Scale: h

Fill blank: measured half-life of the molecule c1cc(CN2CCCNCCNCCCNCC2)ccc1CN1CCCNCCNCCCNCC1 is ____. 3.29

---

Assay: Tacrolimus whole blood pharmacokinetics (LC-MS-MS) after SC Composition A
Assay type: in vivo, human
Settings: human, whole blood, sc, 0.01 mL/kg, Composition A 0.01 mL/kg SC, Day 1; read-out: Tacrolimus Cmax (GM)
Method: Tacrolimus. Blood samples were obtained from all subjects in parallel as for plerixafor. Whole blood from each sample was stored in −80° C. condition until shipment. The analysis of K2EDTA whole blood for the quantitation of tacrolimus using a validated method by LC-MS-MS was performed by Worldwide Clinical Trials, Bioanalytical Services (Austin, TX, USA) in compliance with principles of GLP standards as referenced above. […]
metric: Cmax (ng/mL)
Numeric only. Scale: ng/mL

Fill blank: measured Cmax of the compound C=CC[C@@H]1/C=C(\C)C[C@H](C)C[C@H](OC)[C@H]2O[C@@](O)(C(=O)C(=O)N3CCCC[C@H]3C(=O)O[C@H](/C(C)=C/[C@@H]3CC[C@@H](O)[C@H](OC)C3)[C@H](C)[C@@H](O)CC1=O)[C@H](C)C[C@@H]2OC is ____. 3.15

---

Experiment: Tacrolimus whole blood pharmacokinetics (LC-MS-MS) after SC Composition A
Format: in vivo, human
Details: human, whole blood, sc, 0.02 mL/kg, Composition A 0.02 mL/kg SC QAD, Day 5; read-out: Tacrolimus t1/2 (GM) (converted)
metric: half-life (min)
Numeric only. Scale: min

Fill blank: measured half-life of the compound C=CC[C@@H]1/C=C(\C)C[C@H](C)C[C@H](OC)[C@H]2O[C@@](O)(C(=O)C(=O)N3CCCC[C@H]3C(=O)O[C@H](/C(C)=C/[C@@H]3CC[C@@H](O)[C@H](OC)C3)[C@H](C)[C@@H](O)CC1=O)[C@H](C)C[C@@H]2OC [Tacrolimus] is ____. 1840

---

Test: Tacrolimus whole blood pharmacokinetics (LC-MS-MS) after SC Composition A
Format: in vivo, human
Details: human, whole blood, sc, 0.02 mL/kg, Composition A 0.02 mL/kg SC QAD, Day 5; read-out: Tacrolimus Tmax (Median)
Method: Tacrolimus. Blood samples were obtained from all subjects in parallel as for plerixafor. Whole blood from each sample was stored in −80° C. condition until shipment. The analysis of K2EDTA whole blood for the quantitation of tacrolimus using a validated method by LC-MS-MS was performed by Worldwide Clinical Trials, Bioanalytical Services (Austin, TX, USA) in compliance with principles of GLP standards as referenced above. […]
metric: Tmax (h)
Numeric only. Scale: h

Fill blank: measured Tmax of the compound C=CC[C@@H]1/C=C(\C)C[C@H](C)C[C@H](OC)[C@H]2O[C@@](O)(C(=O)C(=O)N3CCCC[C@H]3C(=O)O[C@H](/C(C)=C/[C@@H]3CC[C@@H](O)[C@H](OC)C3)[C@H](C)[C@@H](O)CC1=O)[C@H](C)C[C@@H]2OC is ____. 2

---

Assay: Tacrolimus whole blood pharmacokinetics (LC-MS-MS) after SC Composition A
Assay type: in vivo, human
Settings: human, whole blood, sc, 0.01 mL/kg, Composition A 0.01 mL/kg SC, Day 1; read-out: Tacrolimus t1/2 (GM) (converted)
metric: half-life (h)
Numeric only. Scale: h

Fill blank: measured half-life of the compound C=CC[C@@H]1/C=C(\C)C[C@H](C)C[C@H](OC)[C@H]2O[C@@](O)(C(=O)C(=O)N3CCCC[C@H]3C(=O)O[C@H](/C(C)=C/[C@@H]3CC[C@@H](O)[C@H](OC)C3)[C@H](C)[C@@H](O)CC1=O)[C@H](C)C[C@@H]2OC is ____. 37.8

---

Assay: Tacrolimus whole blood pharmacokinetics (LC-MS-MS) after SC Composition A
Assay type: in vivo, human
Conditions: human, whole blood, sc, 0.02 mL/kg, Composition A 0.02 mL/kg SC QAD, Day 5; read-out: Tacrolimus AUCtau (GM)
metric: AUC (ng·h/mL)
Numeric only. Scale: ng·h/mL

Fill blank: measured AUC of the compound C=CC[C@@H]1/C=C(\C)C[C@H](C)C[C@H](OC)[C@H]2O[C@@](O)(C(=O)C(=O)N3CCCC[C@H]3C(=O)O[C@H](/C(C)=C/[C@@H]3CC[C@@H](O)[C@H](OC)C3)[C@H](C)[C@@H](O)CC1=O)[C@H](C)C[C@@H]2OC is ____. 237

---

Assay: Tacrolimus whole blood pharmacokinetics (LC-MS-MS) after SC Composition A
Assay type: in vivo, human
Settings: human, whole blood, sc, 0.005 mL/kg, Composition A 0.005 mL/kg SC, Day 1; read-out: Tacrolimus AUCtau (GM)
metric: AUC (ng·h/mL)
Numeric only. Scale: ng·h/mL

Fill blank: measured AUC of the compound C=CC[C@@H]1/C=C(\C)C[C@H](C)C[C@H](OC)[C@H]2O[C@@](O)(C(=O)C(=O)N3CCCC[C@H]3C(=O)O[C@H](/C(C)=C/[C@@H]3CC[C@@H](O)[C@H](OC)C3)[C@H](C)[C@@H](O)CC1=O)[C@H](C)C[C@@H]2OC is ____. 46.4
